System: Saccharomyces cerevisiae
Assay: Inhibition of SV40 T antigen-stimulated Hsp70 ATPase in yeast assessed as ATP hydrolysis relative to control

| COMPOUND | Fold change |
| --- | --- |
| CCCCCCN(C(=O)CCCCCN1C(=O)NC(C2CC2)C(C(=O)OCc2ccccc2)=C1C)C(C(=O)NCCCC)c1ccc(OCC(=O)OC)c(C(=O)OC)c1 (centres undefined) | -2.6 |
| CCCCCCN(C(=O)CCCCCN1C(=O)NC(c2ccc(-c3ccccc3)cc2)C(C(=O)OCc2ccccc2)=C1C)C(C)C(=O)NCCCC (centres undefined) | 1 |
| CCCCCCN(C(=O)CCCCCN1C(=O)NC(c2ccc([N+](=O)[O-])cc2)C(C(=O)OCc2ccccc2)=C1C)C(C(=O)NCCCC)c1ccc(OCC(=O)OC)c(C(=O)OC)c1 (centres undefined) | -1.1 |
| CCCCCCN(C(=O)CCCCCN1C(=O)NC(c2ccc(C(F)(F)F)cc2)C(C(=O)OCc2ccccc2)=C1C)C(C(=O)NCCCC)c1ccc(OCC(=O)OC)c(C(=O)OC)c1 (centres undefined) | -4.8 |

* * *

Test system: Saccharomyces cerevisiae
Test: Inhibition of yeast Hsp70 ATPase assessed as ATP hydrolysis relative to control

| COMPOUND | TGT | Fold change |
| --- | --- | --- |
| CCCCNC(=O)C(c1ccc(OCC(=O)OC)c(C(=O)OC)c1)N(CCc1ccccc1)C(=O)CCCCCN1C(=O)NC(c2ccc(-c3ccccc3)cc2)C(C(=O)OCc2ccccc2)=C1C (configuration not stated) | Saccharomyces cerevisiae | 12.3 |
| CCCCNC(=O)C(c1ccc(OCC(=O)OC)c(C(=O)OC)c1)N(Cc1ccccc1)C(=O)CCCCCN1C(=O)NC(c2ccc(-c3ccccc3)cc2)C(C(=O)OCc2ccccc2)=C1C (configuration not stated) | Saccharomyces cerevisiae | 1.5 |
| CCCCNC(=O)C(c1ccc(OCC(=O)OC)c(C(=O)OC)c1)N(CCOC)C(=O)CCCCCN1C(=O)NC(c2ccc(-c3ccccc3)cc2)C(C(=O)OCc2ccccc2)=C1C (configuration not stated) | Saccharomyces cerevisiae | 1.5 |
| CC1=C(C(=O)OCc2ccccc2)C(c2cccc([N+](=O)[O-])c2)NC(=O)N1CCCCCC(=O)O (configuration not stated) | Saccharomyces cerevisiae | -1.1 |
| CC1=C(C(=O)OCc2ccccc2)C(c2ccc3ccccc3c2)NC(=O)N1CCCCCC(=O)O (configuration not stated) | Saccharomyces cerevisiae | -1.1 |
| CCCCCCN(C(=O)CCCCCN1C(=O)NC(c2ccc(-c3ccccc3)cc2)C(C(=O)OCc2ccccc2)=C1C)C(C(=O)NCCCC)c1ccc(O)cc1 (configuration not stated) | Saccharomyces cerevisiae | 11.8 |
| CCCCCCN(C(=O)CCCCCN1C(=O)NC(c2ccc(-c3ccccc3)cc2)C(C(=O)OCc2ccccc2)=C1C)C(C(=O)NCCCC)c1ccc(O)c(C(=O)OC)c1 (configuration not stated) | Saccharomyces cerevisiae | 19.1 |
| CCCCNC(=O)C(c1ccc(-c2ccccc2)cc1)N(CCN1CCOCC1)C(=O)CCCCCN1C(=O)NC(c2ccc([N+](=O)[O-])cc2)C(C(=O)OCc2ccccc2)=C1C (configuration not stated) | Saccharomyces cerevisiae | 2.3 |
| CCCCCCN(C(=O)CCCCCN1C(=O)NC(c2ccc(-c3ccccc3)cc2)C(C(=O)OCc2ccccc2)=C1C)C(C(=O)NCCCC)c1ccccn1 (configuration not stated) | Saccharomyces cerevisiae | 4.2 |
| CC(C)(C)NC(=O)C(c1ccc(I)cc1)N(CCN1CCOCC1)C(=O)CCCNC(=O)c1ccccc1 (configuration not stated) | Saccharomyces cerevisiae | 1.1 |
| CCCCCCN(C(=O)CCCCCN1C(=O)NC(c2ccc(-c3ccccc3)cc2)C(C(=O)OCc2ccccc2)=C1C)C(C(=O)NCCCC)c1cccc(C(=O)OC)c1 (configuration not stated) | Saccharomyces cerevisiae | 3.7 |
| CCCCCCN(C(=O)CCCCCN1C(=O)NC(c2ccc(-c3ccccc3)cc2)C(C(=O)OCc2ccccc2)=C1C)C(C(=O)NCCCC)C1CCCCC1 (configuration not stated) | Saccharomyces cerevisiae | 3.2 |
| CCCCNC(=O)C(c1ccc(OCC(=O)OC)c(C(=O)OC)c1)N(CCc1ccccn1)C(=O)CCCCCN1C(=O)NC(c2ccc(-c3ccccc3)cc2)C(C(=O)OCc2ccccc2)=C1C (configuration not stated) | Saccharomyces cerevisiae | -1.1 |
| CCCCCCN(C(=O)CCCCCN1C(=O)NC(c2ccc(-c3ccccc3)cc2)C(C(=O)OCc2ccccc2)=C1C)C(C)C(=O)NCCCC (configuration not stated) | Saccharomyces cerevisiae | 1.6 |
| CC1=C(C(=O)OCc2ccccc2)C(c2ccc(-c3ccccc3)cc2)NC(=O)N1CCCCCC(=O)O (configuration not stated) | Saccharomyces cerevisiae | 1.1 |
| CCCCCCN(C(=O)CCCCCN1C(=O)NC(C2CCCCC2)C(C(=O)OCc2ccccc2)=C1C)C(C(=O)NCCCC)c1ccc(OCC(=O)OC)c(C(=O)OC)c1 (configuration not stated) | Saccharomyces cerevisiae | 1.2 |
| CCCCCCN(C(=O)CCCCCN1C(=O)NC(c2ccc(-c3ccccc3)cc2)C(C(=O)OCc2ccccc2)=C1C)C(C(=O)NCCCC)c1ccc(-c2ccccc2)cc1 (configuration not stated) | Saccharomyces cerevisiae | 9.9 |
| CC1=C(C(=O)OCc2ccccc2)C(C2CCCCC2)NC(=O)N1CCCCCC(=O)O (configuration not stated) | Saccharomyces cerevisiae | 1 |
| CCCCCCN(C(=O)CCCCCN1C(=O)NC(c2ccc(-c3ccccc3)cc2)C(C(=O)OCc2ccccc2)=C1C)C(C(=O)NCCCC)c1ccc(OCC(=O)OC)c(C(=O)OC)c1 (configuration not stated) | Saccharomyces cerevisiae | 1.7 |
| CCCCNC(=O)C(c1ccc(OCC(=O)OC)c(C(=O)OC)c1)N(CCC1=CCCCC1)C(=O)CCCCCN1C(=O)NC(c2ccc(-c3ccccc3)cc2)C(C(=O)OCc2ccccc2)=C1C (configuration not stated) | Saccharomyces cerevisiae | 6.1 |
| CC1=C(C(=O)OCc2ccccc2)C(c2ccccc2)NC(=O)N1CCCCCC(=O)O (configuration not stated) | Saccharomyces cerevisiae | 1.5 |
| CCCCCCN(C(=O)CCCCCN1C(=O)NC(c2ccc(-c3ccccc3)cc2)C(C(=O)OCc2ccccc2)=C1C)C(C(=O)NCCCC)c1ccccc1 (configuration not stated) | Saccharomyces cerevisiae | 3.2 |
| COC(=O)CCCCCN1C(=O)NC(C2CC2)C(C(=O)OCc2ccccc2)=C1C (configuration not stated) | Saccharomyces cerevisiae | 1.9 |
| CCCCCCN(C(=O)CCCCCN1C(=O)NC(c2ccc([N+](=O)[O-])cc2)C(C(=O)OCc2ccccc2)=C1C)C(C(=O)NCCCC)c1ccc(OCC(=O)OC)c(C(=O)OC)c1 (configuration not stated) | Saccharomyces cerevisiae | 1 |
| CCCCCCN(C(=O)CCCCCN1C(=O)NC(c2ccc(Cl)cc2)C(C(=O)OCc2ccccc2)=C1C)C(C(=O)NCCCC)c1ccc(OCC(=O)OC)c(C(=O)OC)c1 (configuration not stated) | Saccharomyces cerevisiae | 1.3 |
| CC1=C(C(=O)OCc2ccccc2)C(c2ccc(Cl)cc2)NC(=O)N1CCCCCC(=O)O (configuration not stated) | Saccharomyces cerevisiae | 1.3 |
| CCCCCCN(C(=O)CCCCCN1C(=O)NC(C2CC2)C(C(=O)OCc2ccccc2)=C1C)C(C(=O)NCCCC)c1ccc(OCC(=O)OC)c(C(=O)OC)c1 (configuration not stated) | Saccharomyces cerevisiae | 1.2 |
